# Target: mouse mu‐opioid receptor (Mus musculus, UniProt P42866)
pKi: −log10 of the molar value.
Collected pKi values appear next to each entry.
Measured Metric: pKi

CCC[C@H]1[C@@H]2CCC[C@@]1(c1cccc(O)c1)CCN2CCc1ccccc1 = 9.12
CN1c2ccccc2C(NCCCCCCC(=O)O)c2ccc(Cl)cc2S1(=O)=O (stereo not shown) [Tianeptine, reference compound] = 7.11
OC/C=C/[C@H]1[C@@H]2CCC[C@@]1(c1cccc(O)c1)CCN2CCc1ccccc1 = 8.38
OCC[C@H]1[C@@H]2CCC[C@@]1(c1cccc(O)c1)CCN2CCc1ccccc1 = 9.40

###

# Target: mouse mu‐opioid receptor (Mus musculus, UniProt P42866)
# Assay Overview: Ligand‐stimulated [35S]GTPγS binding, mMOR‐CHO membranes
# Assay type: biochemical
# EC50 values compiled below
Measured Metric: EC50 (nM)

OCC[C@H]1[C@@H]2CCC[C@@]1(c1cccc(O)c1)CCN2CCc1ccccc1 [JL‐2‐39] = 7.09
OC/C=C/[C@H]1[C@@H]2CCC[C@@]1(c1cccc(O)c1)CCN2CCc1ccccc1 [EG‐1‐230] = 24.1
CCC[C@H]1[C@@H]2CCC[C@@]1(c1cccc(O)c1)CCN2CCc1ccccc1 [EG‐1‐203] = 24.2
CN1c2ccccc2C(NCCCCCCC(=O)O)c2ccc(Cl)cc2S1(=O)=O (stereo not shown) [Tianeptine, reference compound] = 6440

###

# Target: mouse kappa opioid receptor (Mus musculus, UniProt P33534)
# Assay Overview: biochemical
Measured Metric: EC50 (nM)

CCC[C@H]1[C@@H]2CCC[C@@]1(c1cccc(O)c1)CCN2CCc1ccccc1 = 125
OC/C=C/[C@H]1[C@@H]2CCC[C@@]1(c1cccc(O)c1)CCN2CCc1ccccc1 = 20.7

###

Below, each entry is listed with its recorded Emax.
# Target: human delta‐opioid receptor (Homo sapiens)
# Assay Overview: Ligand‐stimulated [35S]GTPγS binding, hDOR‐CHO membranes
# Assay type: biochemical
# Assay Conditions: read-out: DOR E max
Measured Metric: Emax (%)

C/C=C\[C@H]1[C@H]2CCC[C@]1(c1cccc(O)c1)CCN2CCc1ccccc1 = -6.97
C=C[C@H]1[C@H]2CCC[C@]1(c1cccc(O)c1)CCN2CCc1ccccc1 = -6.34
CCC[C@H]1[C@@H]2CCC[C@@]1(c1cccc(O)c1)CCN2CCc1ccccc1 = -11.6
OC/C=C/[C@H]1[C@@H]2CCC[C@@]1(c1cccc(O)c1)CCN2CCc1ccccc1 = -10.6
C=C[C@@H]1[C@H]2CCC[C@]1(c1cccc(O)c1)CCN2CCc1ccccc1 = -0.7
C/C=C\[C@@H]1[C@H]2CCC[C@]1(c1cccc(O)c1)CCN2CCc1ccccc1 = 31.4

###

# Target: human delta‐opioid receptor (Homo sapiens)
# Assay Overview: Radioligand competition binding, hDOR‐CHO membranes
pKi: −log10 of the molar value.
Decide using pKi: a value greater than or equal to 6 is Satisfied, a smaller one is Not satisfied.

OCC[C@H]1[C@@H]2CCC[C@@]1(c1cccc(O)c1)CCN2CCc1ccccc1 = Satisfied
CN1c2ccccc2C(NCCCCCCC(=O)O)c2ccc(Cl)cc2S1(=O)=O (centres unmarked) [Tianeptine, reference compound] = Not satisfied
C/C=C\[C@@H]1[C@H]2CCC[C@]1(c1cccc(O)c1)CCN2CCc1ccccc1 = Satisfied
CCC[C@H]1[C@@H]2CCC[C@@]1(c1cccc(O)c1)CCN2CCc1ccccc1 = Satisfied
C=C[C@@H]1[C@H]2CCC[C@]1(c1cccc(O)c1)CCN2CCc1ccccc1 = Not satisfied
C=C[C@H]1[C@H]2CCC[C@]1(c1cccc(O)c1)CCN2CCc1ccccc1 = Satisfied
C/C=C\[C@H]1[C@H]2CCC[C@]1(c1cccc(O)c1)CCN2CCc1ccccc1 = Satisfied

###

# Target: UniProt P33534
# Assay Overview: Radioligand competition binding, mKOR‐CHO membranes
# Assay Conditions: K i at KOR divided by K i at MOR
Measured Metric: MOR/KOR (fold selectivity for MOR over KOR) (fold)

C/C=C\[C@@H]1[C@H]2CCC[C@]1(c1cccc(O)c1)CCN2CCc1ccccc1 [DC‐1‐128.1] = 112.6
CCC[C@H]1[C@@H]2CCC[C@@]1(c1cccc(O)c1)CCN2CCc1ccccc1 [EG‐1‐203] = 29.3
OC/C=C/[C@H]1[C@@H]2CCC[C@@]1(c1cccc(O)c1)CCN2CCc1ccccc1 [EG‐1‐230] = 10.9
OCC[C@H]1[C@@H]2CCC[C@@]1(c1cccc(O)c1)CCN2CCc1ccccc1 [JL‐2‐39] = 43.4

###

# Target: mouse kappa opioid receptor (Mus musculus, UniProt P33534)
# Assay Overview: Radioligand competition binding, mKOR‐CHO membranes
# Assay Conditions: K i at KOR divided by K i at MOR
Measured Metric: MOR/KOR (fold selectivity for MOR over KOR) (fold)

C=C[C@H]1[C@H]2CCC[C@]1(c1cccc(O)c1)CCN2CCc1ccccc1 = 88.5
C=C[C@@H]1[C@H]2CCC[C@]1(c1cccc(O)c1)CCN2CCc1ccccc1 = 27.7
C/C=C\[C@H]1[C@H]2CCC[C@]1(c1cccc(O)c1)CCN2CCc1ccccc1 = 18.8

###

# Target: mouse kappa opioid receptor (Mus musculus, UniProt P33534)
# Assay Overview: Radioligand competition binding, mKOR‐CHO membranes
Measured Metric: Ki (nM)

C=C[C@@H]1[C@H]2CCC[C@]1(c1cccc(O)c1)CCN2CCc1ccccc1 = 52.9
OCC[C@H]1[C@@H]2CCC[C@@]1(c1cccc(O)c1)CCN2CCc1ccccc1 = 17.1
CCC[C@H]1[C@@H]2CCC[C@@]1(c1cccc(O)c1)CCN2CCc1ccccc1 = 22.3

###

# Target: mouse kappa opioid receptor (Mus musculus, UniProt P33534)
Measured Metric: Ki (nM)

C/C=C\[C@H]1[C@H]2CCC[C@]1(c1cccc(O)c1)CCN2CCc1ccccc1 = 34.5
OC/C=C/[C@H]1[C@@H]2CCC[C@@]1(c1cccc(O)c1)CCN2CCc1ccccc1 = 45.9
C=C[C@H]1[C@H]2CCC[C@]1(c1cccc(O)c1)CCN2CCc1ccccc1 = 44
C/C=C\[C@@H]1[C@H]2CCC[C@]1(c1cccc(O)c1)CCN2CCc1ccccc1 = 63.3

###

# Target: human delta‐opioid receptor (Homo sapiens)
# Assay Overview: Radioligand competition binding, hDOR‐CHO membranes
# Assay Conditions: K i at DOR divided by K i at MOR
Measured Metric: MOR/DOR (fold selectivity for MOR over DOR) (fold)

CCC[C@H]1[C@@H]2CCC[C@@]1(c1cccc(O)c1)CCN2CCc1ccccc1 = 87.4
C=C[C@@H]1[C@H]2CCC[C@]1(c1cccc(O)c1)CCN2CCc1ccccc1 = 1773.3
C=C[C@H]1[C@H]2CCC[C@]1(c1cccc(O)c1)CCN2CCc1ccccc1 = 698.5
C/C=C\[C@@H]1[C@H]2CCC[C@]1(c1cccc(O)c1)CCN2CCc1ccccc1 = 565.2
OCC[C@H]1[C@@H]2CCC[C@@]1(c1cccc(O)c1)CCN2CCc1ccccc1 = 1199.2
C/C=C\[C@H]1[C@H]2CCC[C@]1(c1cccc(O)c1)CCN2CCc1ccccc1 = 235.0
OC/C=C/[C@H]1[C@@H]2CCC[C@@]1(c1cccc(O)c1)CCN2CCc1ccccc1 = 238.5

###

# Target: UniProt P42866
# Assay Overview: Ligand‐stimulated [35S]GTPγS binding, mMOR‐CHO membranes
# Format: biochemical
# Assay Conditions: read-out: MOR E max
This section presents molecules with their documented Emax values.
Measured Metric: Emax

OCC[C@H]1[C@@H]2CCC[C@@]1(c1cccc(O)c1)CCN2CCc1ccccc1 = 13%
CCC[C@H]1[C@@H]2CCC[C@@]1(c1cccc(O)c1)CCN2CCc1ccccc1 = 4.79%
CN1c2ccccc2C(NCCCCCCC(=O)O)c2ccc(Cl)cc2S1(=O)=O (stereo not shown) [Tianeptine, reference compound] = 110%
OC/C=C/[C@H]1[C@@H]2CCC[C@@]1(c1cccc(O)c1)CCN2CCc1ccccc1 = 0.67%

###

Catalogue of EC50 readings, one per entry.
# Target: human delta‐opioid receptor (Homo sapiens, UniProt P41143)
# Assay Overview: Ligand‐stimulated [35S]GTPγS binding, hDOR‐CHO membranes
Measured Metric: EC50

OC/C=C/[C@H]1[C@@H]2CCC[C@@]1(c1cccc(O)c1)CCN2CCc1ccccc1 = 517 nM
C=C[C@@H]1[C@H]2CCC[C@]1(c1cccc(O)c1)CCN2CCc1ccccc1 = 1160 nM
C/C=C\[C@@H]1[C@H]2CCC[C@]1(c1cccc(O)c1)CCN2CCc1ccccc1 = 503 nM
C/C=C\[C@H]1[C@H]2CCC[C@]1(c1cccc(O)c1)CCN2CCc1ccccc1 = 253 nM
C=C[C@H]1[C@H]2CCC[C@]1(c1cccc(O)c1)CCN2CCc1ccccc1 = 160 nM
CCC[C@H]1[C@@H]2CCC[C@@]1(c1cccc(O)c1)CCN2CCc1ccccc1 = 37 nM

All values here come from paper PMC10307939.
